# system_tested: T1, recombinant human CD137 (Homo sapiens, UniProt Q07011)
# T1 construct: made in house; host or cells: FreeStyle293F
# assay_notes: Biacore T200 SPR affinity of Dual-Fab antibodies to human CD137
# Type: binding
# condition_info: 37 degrees C, pH 7.4
outcome_measure: CD137 Koff (s⁻¹)
Field format: number, assumed s⁻¹, no unit text.

H1571L0581: affinity matured Dual-Fab variant, VH SEQ ID NO 93, VL SEQ ID NO 143 (antibody, V domains shown) VH: QVQLVESGGGLVQPGRSLRLSCAASGFKFSNVWFHWVRQAPGKGLEWVAQIKDKYNAYATYYAPSVKGRFTISRDDSKNSIYLQMNSLKTEDTAVYYCHYVHYASASTLLPAFGVDAWGQGTTVTVSS VL: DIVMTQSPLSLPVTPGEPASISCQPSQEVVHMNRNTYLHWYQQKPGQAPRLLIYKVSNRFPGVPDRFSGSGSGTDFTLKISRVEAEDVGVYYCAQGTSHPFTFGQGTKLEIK | 0.00105

Attention now shifts to the item below.
For reference, reported CD137 Koff for H1652L0943: affinity matured Dual-Fab variant, VH SEQ ID NO 99, VL SEQ ID NO 146 (antibody, V domains shown) VH: QVQLVESGGGLVQPGRSLRLSCAASGFVFSNVWFHWVRQAPGKGLEWVAQIKDYYNAYADYYAPSVEGRFTISRDDSKNSIYLQMNSLKTEDTAVYYCHYVHYASASTLLPAEGVDAWGQGTTVTVSS VL: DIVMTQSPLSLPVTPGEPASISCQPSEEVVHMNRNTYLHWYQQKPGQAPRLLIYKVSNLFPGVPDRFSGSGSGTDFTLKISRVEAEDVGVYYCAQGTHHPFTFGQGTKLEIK stands at 0.00047
